biological target: Human αvβ3 (Homo sapiens, UniProt P05106+P06756); construct: purchased Chemicon International Inc., Temecula, Calif; assay: In Vitro Solid Phase Purified αvβ3 Binding Assay (vitronectin/αvβ3); details: vitronectin binding to immobilized purified human αvβ3; mean ± spread; read-out: αvβ3IC50
Sequence (P06756 31-889 limits assumed): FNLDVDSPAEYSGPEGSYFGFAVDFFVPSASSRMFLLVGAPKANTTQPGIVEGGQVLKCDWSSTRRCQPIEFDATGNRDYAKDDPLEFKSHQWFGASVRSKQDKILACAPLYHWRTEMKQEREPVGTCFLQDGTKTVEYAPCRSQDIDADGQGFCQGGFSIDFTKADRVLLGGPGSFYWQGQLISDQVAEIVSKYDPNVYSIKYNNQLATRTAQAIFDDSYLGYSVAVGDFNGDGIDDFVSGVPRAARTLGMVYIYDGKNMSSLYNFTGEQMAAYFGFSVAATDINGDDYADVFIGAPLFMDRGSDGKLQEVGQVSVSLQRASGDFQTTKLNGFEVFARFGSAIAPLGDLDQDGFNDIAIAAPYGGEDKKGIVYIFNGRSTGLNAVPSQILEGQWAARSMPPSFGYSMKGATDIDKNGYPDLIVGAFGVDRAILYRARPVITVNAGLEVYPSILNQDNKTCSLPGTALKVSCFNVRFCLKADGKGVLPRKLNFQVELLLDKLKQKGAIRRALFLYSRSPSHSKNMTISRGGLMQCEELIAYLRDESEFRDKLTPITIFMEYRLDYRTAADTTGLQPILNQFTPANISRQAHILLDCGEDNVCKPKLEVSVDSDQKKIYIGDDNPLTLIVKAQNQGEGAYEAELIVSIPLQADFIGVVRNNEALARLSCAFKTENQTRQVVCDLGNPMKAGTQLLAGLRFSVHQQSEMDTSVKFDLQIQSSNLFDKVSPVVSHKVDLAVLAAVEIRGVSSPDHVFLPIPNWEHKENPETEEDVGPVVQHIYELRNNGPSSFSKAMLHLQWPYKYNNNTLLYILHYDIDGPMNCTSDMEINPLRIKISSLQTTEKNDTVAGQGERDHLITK
Sequence (P06756 891-1048 partner limits assumed): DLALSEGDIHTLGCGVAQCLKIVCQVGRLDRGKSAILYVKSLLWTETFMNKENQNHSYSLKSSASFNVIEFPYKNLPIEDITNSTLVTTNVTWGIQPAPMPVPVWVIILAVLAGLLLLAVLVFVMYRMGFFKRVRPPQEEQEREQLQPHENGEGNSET
Sequence (P05106 27-788): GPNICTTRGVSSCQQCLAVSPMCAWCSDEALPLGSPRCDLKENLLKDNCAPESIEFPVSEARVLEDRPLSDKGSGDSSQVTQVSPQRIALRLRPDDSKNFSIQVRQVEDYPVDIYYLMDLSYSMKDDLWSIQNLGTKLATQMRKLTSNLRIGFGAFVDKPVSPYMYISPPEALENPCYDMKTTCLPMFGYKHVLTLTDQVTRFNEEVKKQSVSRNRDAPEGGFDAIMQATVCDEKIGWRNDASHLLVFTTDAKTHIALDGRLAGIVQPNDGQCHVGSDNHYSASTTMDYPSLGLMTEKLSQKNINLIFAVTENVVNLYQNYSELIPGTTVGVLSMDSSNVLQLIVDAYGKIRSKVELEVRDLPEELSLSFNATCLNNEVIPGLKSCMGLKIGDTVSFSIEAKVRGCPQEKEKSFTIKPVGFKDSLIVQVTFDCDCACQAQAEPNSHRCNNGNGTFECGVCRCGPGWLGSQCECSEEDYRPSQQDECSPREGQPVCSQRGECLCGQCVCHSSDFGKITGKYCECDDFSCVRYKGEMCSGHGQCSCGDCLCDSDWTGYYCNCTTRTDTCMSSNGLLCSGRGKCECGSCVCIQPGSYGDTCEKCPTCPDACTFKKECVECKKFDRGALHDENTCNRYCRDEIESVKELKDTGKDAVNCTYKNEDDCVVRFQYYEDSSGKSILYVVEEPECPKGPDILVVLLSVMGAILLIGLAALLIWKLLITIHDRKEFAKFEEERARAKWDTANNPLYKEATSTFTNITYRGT
pIC50: −log10 of the molar value.
pIC50: recorded values
assay.readout: pIC50

* O=C(O)CC(c1cnc2c(c1)CCCC2)C1CCN(C(=O)CCCc2ccc3c(n2)NCCC3)CC1 (single isomer, unassigned) [Cpd 58a] | 9.40
* O=C(O)CC(CC1CCN(C(=O)c2cccc(NC3=NCC(O)CN3)c2)CC1)c1ccc2c(c1)OCO2 (stereo not shown) | 7.32
* O=C(O)CC(CC1CCN(C(=O)CCCc2ccc3c(n2)NCCC3)CC1)c1cc(F)cc(F)c1 (stereo not shown) | 6.32
* COc1ccc(C(CC(=O)O)CC2CCN(C(=O)CCc3ccc4c(n3)NCCC4)CC2)cc1 (racemic) | 9.00
* O=C(O)CC(CC1CCN(C(=O)CCc2ccc3c(n2)NCCC3)CC1)c1ccc(OC(F)(F)F)cc1 (stereo not shown) | 8.28
* O=C(O)CC(CC1CCN(C(=O)c2cccc(NC3=NCCN3)c2)CC1)c1cccc(F)c1 (racemic) | 6.86
* COc1ccc(C(CCC2CCN(C(=O)c3cccc(NC4=NCC(O)CN4)c3)CC2)CC(=O)O)cn1 (stereo not shown) | 8.62
* COc1ccc(C(CC(=O)O)C2CCN(C(=O)CCCc3ccc4c(n3)NCCC4)CC2)cn1 (stereo not shown) | 9.10
* Cc1ncc(C(CC(=O)O)CC2CCN(C(=O)CCc3ccc4c(n3)NCCC4)CC2)cn1 (stereo not shown) | 9.15
* COc1ncc(C(CC(=O)O)CC2CCN(C(=O)CCc3ccc4c(n3)NCCC4)CC2)c(OC)n1 (stereo not shown) | 8.85
* O=C(O)CC(CC1CCN(C(=O)CCCc2ccc3c(n2)NCCC3)CC1)c1ccc2c(c1)OCO2 (stereo not shown) | 7.56
* O=C(O)CC(CCC1CCN(C(=O)c2cccc(NC3=NCCCN3)c2)CC1)c1cccnc1 (stereo not shown) | 8.12
* O=C(O)CC(CC1CCN(C(=O)CCc2ccc3c(n2)NCCC3)CC1)c1ccc2c(c1)OCC2 (stereo not shown) [Cpd 36] | 9.10
* O=C(O)CC(CC1CCN(C(=O)CCc2ccc3c(n2)NCCC3)CC1)c1ccc2c(c1)OCCO2 (racemic) | 9.10
